# target.under.test: Intercellular adhesion molecule (ICAM-1), Integrin alpha-L/beta-2 (Homo sapiens, UniProt P05107+P05362+P20701)
# Sequence (P20701 whole entry): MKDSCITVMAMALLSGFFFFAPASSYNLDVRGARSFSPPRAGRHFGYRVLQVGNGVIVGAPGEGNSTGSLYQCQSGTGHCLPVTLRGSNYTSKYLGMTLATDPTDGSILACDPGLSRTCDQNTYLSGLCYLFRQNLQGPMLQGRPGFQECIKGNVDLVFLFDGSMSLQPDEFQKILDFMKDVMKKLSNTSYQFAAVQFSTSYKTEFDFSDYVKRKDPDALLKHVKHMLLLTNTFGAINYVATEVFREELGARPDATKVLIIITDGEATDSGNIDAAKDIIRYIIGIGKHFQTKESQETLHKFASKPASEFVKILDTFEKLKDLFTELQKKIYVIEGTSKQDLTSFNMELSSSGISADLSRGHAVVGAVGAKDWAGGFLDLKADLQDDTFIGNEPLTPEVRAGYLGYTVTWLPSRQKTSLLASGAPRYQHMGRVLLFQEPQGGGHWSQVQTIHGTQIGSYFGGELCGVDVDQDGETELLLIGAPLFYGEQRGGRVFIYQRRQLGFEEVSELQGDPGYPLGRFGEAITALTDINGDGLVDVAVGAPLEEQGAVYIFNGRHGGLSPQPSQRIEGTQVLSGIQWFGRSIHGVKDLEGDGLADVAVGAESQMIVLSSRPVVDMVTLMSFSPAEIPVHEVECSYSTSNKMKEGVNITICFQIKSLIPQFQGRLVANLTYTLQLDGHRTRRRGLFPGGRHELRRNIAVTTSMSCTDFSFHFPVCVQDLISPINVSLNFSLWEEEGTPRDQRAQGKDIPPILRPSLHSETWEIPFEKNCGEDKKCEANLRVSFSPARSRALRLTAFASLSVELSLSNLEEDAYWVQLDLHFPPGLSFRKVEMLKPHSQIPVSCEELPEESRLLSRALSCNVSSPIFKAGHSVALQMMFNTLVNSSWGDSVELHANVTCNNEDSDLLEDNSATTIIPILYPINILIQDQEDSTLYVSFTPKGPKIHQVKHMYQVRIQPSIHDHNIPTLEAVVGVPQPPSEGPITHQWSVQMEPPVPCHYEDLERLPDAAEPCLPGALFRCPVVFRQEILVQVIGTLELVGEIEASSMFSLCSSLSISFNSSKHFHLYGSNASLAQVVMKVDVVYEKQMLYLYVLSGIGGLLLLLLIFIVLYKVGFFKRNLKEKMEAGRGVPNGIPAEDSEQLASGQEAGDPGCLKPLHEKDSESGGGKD
# Sequence (P05362 whole entry): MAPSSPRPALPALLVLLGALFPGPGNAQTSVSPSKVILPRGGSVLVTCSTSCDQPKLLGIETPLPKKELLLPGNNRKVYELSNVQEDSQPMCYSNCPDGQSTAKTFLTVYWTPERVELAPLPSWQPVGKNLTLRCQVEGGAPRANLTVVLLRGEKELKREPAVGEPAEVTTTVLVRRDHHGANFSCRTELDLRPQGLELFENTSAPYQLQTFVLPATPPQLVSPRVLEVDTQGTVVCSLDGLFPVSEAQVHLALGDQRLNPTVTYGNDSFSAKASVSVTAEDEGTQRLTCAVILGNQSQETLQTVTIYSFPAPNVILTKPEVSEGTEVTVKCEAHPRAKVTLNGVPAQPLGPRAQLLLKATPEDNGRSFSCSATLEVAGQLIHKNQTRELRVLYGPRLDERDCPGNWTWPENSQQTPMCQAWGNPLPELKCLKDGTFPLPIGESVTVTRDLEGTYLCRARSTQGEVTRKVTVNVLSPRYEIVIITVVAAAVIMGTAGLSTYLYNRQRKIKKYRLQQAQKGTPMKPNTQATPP
# Sequence (P05107 whole entry): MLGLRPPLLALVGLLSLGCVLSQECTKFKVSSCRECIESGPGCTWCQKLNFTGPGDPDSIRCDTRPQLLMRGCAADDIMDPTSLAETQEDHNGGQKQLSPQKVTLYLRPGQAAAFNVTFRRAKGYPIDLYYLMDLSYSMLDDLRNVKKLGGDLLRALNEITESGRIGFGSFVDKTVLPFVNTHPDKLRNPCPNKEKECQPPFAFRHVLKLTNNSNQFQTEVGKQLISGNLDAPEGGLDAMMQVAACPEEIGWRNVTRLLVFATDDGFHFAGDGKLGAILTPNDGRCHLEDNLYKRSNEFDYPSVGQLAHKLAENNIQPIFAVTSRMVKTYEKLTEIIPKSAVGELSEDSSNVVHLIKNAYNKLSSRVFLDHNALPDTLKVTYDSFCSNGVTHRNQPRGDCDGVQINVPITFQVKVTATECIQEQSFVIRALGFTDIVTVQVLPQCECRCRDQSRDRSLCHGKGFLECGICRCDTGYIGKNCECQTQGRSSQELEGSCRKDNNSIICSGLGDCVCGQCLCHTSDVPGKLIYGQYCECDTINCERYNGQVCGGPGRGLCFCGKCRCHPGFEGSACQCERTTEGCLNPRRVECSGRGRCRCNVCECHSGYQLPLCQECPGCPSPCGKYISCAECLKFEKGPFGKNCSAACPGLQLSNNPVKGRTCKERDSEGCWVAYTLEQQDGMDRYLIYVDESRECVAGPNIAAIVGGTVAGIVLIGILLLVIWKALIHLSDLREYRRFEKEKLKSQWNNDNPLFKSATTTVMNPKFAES
# assay.remarks: Inhibition of LFA1 binding to full length soluble ICAM1 by gamma scintillation counter
measured.parameter: IC50 (µM)
Numbers only, in µM.

# lookup: IC50 of C=C/C(C)=C/C[C@]1(C)[C@H]2C[C@@H](OC(=O)/C(C)=C/C)C[C@@H]3[C@H](OC(C)=O)OC(OC(C)=O)[C@@]32[C@H](O)C[C@@H]1C (stereo partly specified)
50
